# Study system: Aurora A kinase (Homo sapiens, UniProt O14965)
# Construct: purchased
# Sequence (O14965 whole entry): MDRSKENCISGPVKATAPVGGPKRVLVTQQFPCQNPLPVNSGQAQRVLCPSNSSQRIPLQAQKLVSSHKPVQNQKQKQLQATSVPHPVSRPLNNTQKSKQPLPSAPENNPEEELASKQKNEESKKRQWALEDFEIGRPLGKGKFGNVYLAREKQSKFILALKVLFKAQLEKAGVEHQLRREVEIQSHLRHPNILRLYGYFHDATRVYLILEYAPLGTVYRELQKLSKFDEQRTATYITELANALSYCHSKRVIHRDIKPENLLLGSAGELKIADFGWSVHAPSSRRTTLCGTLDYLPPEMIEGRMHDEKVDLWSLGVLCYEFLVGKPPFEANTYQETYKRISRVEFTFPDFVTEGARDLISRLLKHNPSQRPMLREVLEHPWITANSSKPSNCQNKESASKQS
# Experiment summary: Aurora-A (human) kinase assay (Kemptide substrate)
# Type: biochemical
# Experimental setup: pIC50 is -log(IC50, M); 15 μM ATP; read-out: Kinase Inhibition pIC50 Aurora A kinase (converted)
Reported endpoint: IC50 (nM)
Numeric answer only, unit nM assumed.

See these solved cases before continuing.
CCNc1nc(C)c(-c2ccnc(Nc3cccc(CC(=O)OCCOC)c3)n2)s1 15.8
Cc1nc(N)sc1-c1ccnc(Nc2ccc(N3CCOCC3)c(C(N)=O)c2)n1 158
Cc1nc(C)c(-c2ccnc(Nc3ccc(N4CCOCC4)c(Cl)c3)n2)s1 158
CNc1nc(C)c(-c2ccnc(Nc3cc(CO)cc(CO)c3)n2)s1 50.1
COc1cc(Nc2nccc(-c3sc(C)nc3C)n2)cc(OC)c1 79.4
Cc1nc(C)c(-c2ccnc(Nc3ccc(N4CCSCC4)cc3)n2)s1 158
CCNc1nc(C)c(-c2ccnc(Nc3ccc(CNC(C)=O)cc3)n2)s1 15.8
Cc1nc(N)sc1-c1ccnc(Nc2cccc(CNS(=O)(=O)C(F)(F)F)c2)n1 251
Cc1nc(C)c(-c2ccnc(Nc3ccc(C)c(S(=O)(=O)N4CCOCC4)c3)n2)s1 3160
Cc1nc(C)c(-c2ccnc(Nc3ccc(N4CCN(C(=O)C5CC5)CC4)cc3)n2)s1 39.8

Problem: Note IC50 for the compound shown: CC(=O)N1CCN(c2ccc(Nc3nccc(-c4sc(N(C)c5cccnc5)nc4C)n3)cc2)CC1
Solution: 31.6

Problem: Note IC50 for the compound shown: Cc1nc(-c2cccnc2)sc1-c1ccnc(Nc2ccc(N3CCSCC3)cc2)n1
Solution: 501

Problem: Note IC50 for the compound shown: CC(=O)NCc1ccc(Nc2nccc(-c3sc(C)nc3C)n2)cc1
Solution: 39.8

Problem: Note IC50 for the compound shown: CCNc1nc(C)c(-c2ccnc(Nc3ccc(N4CCN(C)CC4)cc3)n2)s1
Solution: 200

Problem: Note IC50 for the compound shown: CCNc1nc(C)c(-c2ccnc(Nc3cc(OC)cc(OC)c3)n2)s1
Solution: 794

Problem: Note IC50 for the compound shown: Cc1nc(N(C)c2cccnc2)sc1-c1ccnc(Nc2ccc(N3CCOCC3)cc2)n1
Solution: 126

Problem: Note IC50 for the compound shown: Cc1nc(-c2cccnc2)sc1-c1ccnc(Nc2ccc(N3CCCC3)cc2)n1
Solution: 2000

Problem: Note IC50 for the compound shown: Cc1nc(C)c(-c2ccnc(Nc3ccc(S(=O)(=O)NCCO)cc3)n2)s1
Solution: 79.4

* * *

Item-by-item account of log10 IC50
# Study system: CDK1-cyclin B (Homo sapiens, UniProt P06493)
# Sequence (P06493 whole entry): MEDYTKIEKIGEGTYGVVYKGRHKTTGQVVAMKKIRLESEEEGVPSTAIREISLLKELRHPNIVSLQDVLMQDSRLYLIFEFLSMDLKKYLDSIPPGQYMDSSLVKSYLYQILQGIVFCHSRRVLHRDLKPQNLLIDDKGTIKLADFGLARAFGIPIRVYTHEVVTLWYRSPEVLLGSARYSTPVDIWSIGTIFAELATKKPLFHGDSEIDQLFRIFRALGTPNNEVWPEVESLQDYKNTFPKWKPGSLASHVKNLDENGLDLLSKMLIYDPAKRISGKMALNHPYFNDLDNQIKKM
# Sequence (P14635 whole entry partner): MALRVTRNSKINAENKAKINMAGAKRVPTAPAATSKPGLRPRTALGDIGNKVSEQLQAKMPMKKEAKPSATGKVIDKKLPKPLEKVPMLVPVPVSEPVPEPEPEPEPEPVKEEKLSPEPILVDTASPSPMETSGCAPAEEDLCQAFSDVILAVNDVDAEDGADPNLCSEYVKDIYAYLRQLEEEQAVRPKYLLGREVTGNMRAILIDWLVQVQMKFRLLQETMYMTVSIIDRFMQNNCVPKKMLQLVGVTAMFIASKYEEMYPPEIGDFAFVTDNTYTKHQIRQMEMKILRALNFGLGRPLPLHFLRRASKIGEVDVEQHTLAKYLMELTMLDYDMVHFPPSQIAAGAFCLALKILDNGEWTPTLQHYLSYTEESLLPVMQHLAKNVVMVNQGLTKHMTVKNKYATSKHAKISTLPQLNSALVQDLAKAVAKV
# Experiment summary: Kinase assay (radioactive phosphate incorporation), CDK1-cyclin B
# Format: biochemical
# Experimental setup: read-out: Kinase Inhibition pIC50 CDK1-cyclin B (converted)
Heads up: the numbers are on a log10 scale; they represent IC50 in nM.

CCNc1nc(C)c(-c2ccnc(Nc3cccc(S(=O)(=O)NC)c3)n2)s1 3.00
Cc1ccc(Nc2nccc(-c3sc(NC(C)(C)C)nc3C)n2)cc1[N+](=O)[O-] 3.10
CC(=O)NCc1ccc(Nc2nccc(-c3sc(N)nc3C)n2)cc1 3.00
CCNc1nc(C)c(-c2ccnc(Nc3ccc(N4CCN(C(C)=O)CC4)cc3)n2)s1 3.70
CCNc1nc(C)c(-c2ccnc(Nc3ccc(S(=O)(=O)NCCOC)cc3)n2)s1 1.70
Cc1nc(C)c(-c2ccnc(Nc3cccc(N4CCNCC4)c3)n2)s1 3.70
CC(=O)N1CCN(c2cccc(Nc3nccc(-c4sc(C)nc4C)n3)c2)CC1 4.10
CNc1nc(C)c(-c2ccnc(Nc3ccc(CNC(C)=O)cc3)n2)s1 2.60

Problem: Note log10 IC50 for the compound shown: COCCNS(=O)(=O)c1ccc(Nc2nccc(-c3sc(N)nc3C)n2)cc1
Solution: 1.70

Problem: Note log10 IC50 for the compound shown: CCNc1nc(C)c(-c2ccnc(Nc3cccc(S(=O)(=O)NCCOC)c3)n2)s1
Solution: 3.30

Problem: Note log10 IC50 for the compound shown: Cc1nc(N)sc1-c1ccnc(Nc2cccc(S(=O)(=O)NCCO)c2)n1
Solution: 3.00

Problem: Note log10 IC50 for the compound shown: CCNc1nc(C)c(-c2ccnc(Nc3cccc(CNS(C)(=O)=O)c3)n2)s1
Solution: 3.10

Problem: Note log10 IC50 for the compound shown: CNc1nc(C)c(-c2ccnc(Nc3cccc(S(C)(=O)=O)c3)n2)s1
Solution: 2.40

Problem: Note log10 IC50 for the compound shown: CNc1nc(C)c(-c2ccnc(Nc3cccc(S(=O)(=O)NC)c3)n2)s1
Solution: 3.00

Problem: Note log10 IC50 for the compound shown: CCNc1nc(C)c(-c2ccnc(Nc3cccc(S(N)(=O)=O)c3)n2)s1
Solution: 3.30

Problem: Note log10 IC50 for the compound shown: CCNc1nc(C)c(-c2ccnc(Nc3cccc(S(=O)(=O)NCCO)c3)n2)s1
Solution: 3.00
